Would you kindly list pH under 1 bar of CO2 for each of these compounds?
measurement notes: Evaluation of the switching behaviour of ASHS systems (carboxylic acid/base/water) under air and 1 bar of CO2
Type: physicochemical
particulars: base Jeffamine D-230 (two moles acid per mole D-230); H2O:acid mass ratio 15:1; 20° C.
Please state the value as a number alone, without comment.

Q: Any idea what pH under 1 bar of CO2 was measured for `O=C(O)CCC1CCCC1` ?
A: 6.45

Q: Any idea what pH under 1 bar of CO2 was measured for CCCCC(CC)C(=O)O (stereo not shown) ?
A: 6.74

Q: Any idea what pH under 1 bar of CO2 was measured for CCCCCCCC(=O)O [Octanoic acid, octanoic acid, reference compound] ?
A: 6.70

Q: Any idea what pH under 1 bar of CO2 was measured for `CCCC(CCC)C(=O)O` ?
A: 6.73

====

Would you kindly list pH under air for each of these molecules?
measurement notes: Evaluation of the switching behaviour of ASHS systems (carboxylic acid/base/water) under air and 1 bar of CO2
Assay type: physicochemical
particulars: base Jeffamine D-230 (two moles acid per mole D-230); H2O:acid mass ratio 15:1; 20° C.

Q: Any idea what pH under air was measured for CCCCCCCC(=O)O [Octanoic acid, octanoic acid, reference compound] ?
A: 7.55

Q: Any idea what pH under air was measured for `CCCC(CCC)C(=O)O` ?
A: 8.43

Q: Any idea what pH under air was measured for `O=C(O)CCC1CCCC1` ?
A: 6.94

Q: Any idea what pH under air was measured for CCCCC(CC)C(=O)O (stereo not shown) ?
A: 8.34

====

measurement notes: Evaluation of the switching behaviour of ASHS systems (carboxylic acid/base/water) under air and 1 bar of CO2
Format: physicochemical
particulars: base Jeffamine D-230 (two moles acid per mole D-230); H2O:acid mass ratio 15:1; 1 bar CO2; 20° C.; partial = acid recovered smaller than mass added
measurement type: Behaviour of the system after CO2 addition

compound: CCCC(CCC)C(=O)O [PPA, 2-propylpentanoic acid]
experimental value: Partial phase separation
--
compound: CCCCC(CC)C(=O)O (stereo not shown) [EHA, 2-ethylhexanoic acid]
experimental value: Partial phase separation

Attribution: patent US12605653B2
